Biological target: human PTH1 receptor (Homo sapiens)
Sequence (Q03431 27-593): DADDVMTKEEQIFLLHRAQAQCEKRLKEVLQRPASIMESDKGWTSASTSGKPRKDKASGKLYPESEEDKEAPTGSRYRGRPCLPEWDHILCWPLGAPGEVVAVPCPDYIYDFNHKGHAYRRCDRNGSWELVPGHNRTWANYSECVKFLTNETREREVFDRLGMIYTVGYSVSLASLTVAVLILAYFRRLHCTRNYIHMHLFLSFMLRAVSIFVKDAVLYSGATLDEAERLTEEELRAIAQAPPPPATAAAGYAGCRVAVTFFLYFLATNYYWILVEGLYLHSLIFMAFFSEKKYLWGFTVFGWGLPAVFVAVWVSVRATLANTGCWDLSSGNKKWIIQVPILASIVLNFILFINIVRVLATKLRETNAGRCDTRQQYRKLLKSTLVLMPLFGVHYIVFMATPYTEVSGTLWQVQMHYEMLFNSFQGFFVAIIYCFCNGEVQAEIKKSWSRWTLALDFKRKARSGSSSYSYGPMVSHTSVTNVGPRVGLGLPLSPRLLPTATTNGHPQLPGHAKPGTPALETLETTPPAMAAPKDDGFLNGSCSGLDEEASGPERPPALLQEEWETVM
Assay: In vitro cAMP signal activity in HKRK-B7 cells (LLC-PK1 cells overexpressing the human PTH1 receptor)
Type: cell-based
Conditions: HKRK-B7 cells; compound at 1×10^−3 M; cAMP produced as percentage of that produced by hPTH(1-34) at 100 nM
Listing of recorded cAMP production activity (%) by entry.
A number alone suffices; assume %.

Worked examples follow.
{"columns": ["compound", "scale.unit", "endpoint.result"],
 "data": [
  ["Cc1cc(C(=O)N2CCC(C)(O)CC2)cc(C)c1CCS(=O)(=O)N1CCC2(CC1)N=C(C1CCC(CCC(F)(F)F)CC1)NC2=O (stereo not shown) [Compound 1380]", "%", 109],
  ["Cc1cc(C(=O)N(C)C)ccc1CCS(=O)(=O)N1CCC2(CC1)N=C(c1ccc(Cl)c(C(F)(F)F)c1)NC2=O [Compound 126]", "%", 79],
  ["CC(C)(C)OC(=O)NCc1ccc(/C=C/S(=O)(=O)N2CCC3(CC2)N=C(C2CCCCC2)NC3=O)c(C(F)(F)F)c1 [Compound 205]", "%", 47],
  ["Cc1cc(C(=O)N(C)C)cc(C)c1CCS(=O)(=O)N1CCC2(CC1)N=C(C1CCC(CCC(F)(F)F)CC1)NC2=O (stereo not shown) [Compound 1378]", "%", 116],
  ["COC(=O)N(C)c1ccc(/C=C/S(=O)(=O)N2CCC3(CC2)N=C(c2cccc(OC(F)(F)F)c2)NC3=O)c(C)c1 [Compound 467]", "%", 60],
  ["CN(C)C(=O)c1cccc(C2=NC3(CCN(S(=O)(=O)c4cccc(Cl)c4)CC3)C(=O)N2)c1 [Compound 351]", "%", 7.4],
  ["O=C1NC(C2CCCCC2)=NC12CCN(S(=O)(=O)CCc1cccc3cc[nH]c13)CC2 [Compound 835]", "%", 50],
  ["COc1c(N(C)C(N)=O)cc(C)c(/C=C/S(=O)(=O)N2CCC3(CC2)N=C([C@H]2CC[C@H](C)CC2)NC3=O)c1C [Compound 693]", "%", 103]
]}

[Q] Which cAMP production activity (%) value is on record for Cc1cc(C(=O)N2CCC(C)(O)CC2)cc(C)c1/C=C/S(=O)(=O)N1CCC2(CC1)N=C(c1ccc(Cl)c(OCC(F)(F)C(F)(F)F)c1)NC2=O [Compound 1230] ?
[A] 64

[Q] Can you handle Cc1cc(N2C(=O)CNC2=O)ccc1/C=C/S(=O)(=O)N1CCC2(CC1)N=C(C1CCC(C)CC1)NC2=O (stereo not shown) [Compound 504] next?
[A] 60

[Q] Can you handle CCC1CCC(C2=NC3(CCN(S(=O)(=O)CCc4ccc(C(=O)N5CCN(C6COC6)CC5)cc4C)CC3)C(=O)N2)CC1 (stereo not shown) [Compound 976] next?
[A] 73

[Q] Can you handle Cc1cc(N(C)C(N)=O)cc(C)c1CCS(=O)(=O)N1CCC2(CC1)N=C(c1cccc(CCCC(F)(F)F)c1)NC2=O [Compound 1359] next?
[A] 165

[Q] Can you handle Cc1cc(C(=O)N(C)C)ccc1CCS(=O)(=O)N1CCC2(CC1)N=C(c1cccc(-c3cccnc3)c1)NC2=O [Compound 173] next?
[A] 71
